// provenance: ChEMBL document CHEMBL4627352

- System: Staphylococcus epidermidis
- test.name: Inhibition of DHPS in Staphylococcus epidermidis assessed as antibacterial activity by measuring inhibition of bacterial growth incubated for 24 hrs by microbroth dilution method
readout: MIC

compound.structure.string	assay.value
CCN/C(S[C@@H]1O[C@H](COC(C)=O)[C@H](OC(C)=O)[C@H](OC(C)=O)[C@H]1OC(C)=O)=C(/C#N)C(=O)Nc1ccc(S(=O)(=O)Nc2onc(C)c2C)cc1	31.2 µg/mL
CCN/C(SCC)=C(/C#N)C(=O)Nc1ccc(S(=O)(=O)Nc2onc(C)c2C)cc1	0.49 µg/mL
CC1(C)S[C@@H]2[C@H](NC(=O)[C@H](N)c3ccccc3)C(=O)N2[C@H]1C(=O)O	0.06 µg/mL
CC(=O)OC[C@H]1O[C@@H](S/C(Nc2ccccc2)=C(\C#N)C(=O)Nc2ccc(S(=O)(=O)Nc3onc(C)c3C)cc2)[C@H](OC(C)=O)[C@@H](OC(C)=O)[C@@H]1OC(C)=O	15.6 µg/mL
CCN/C(S[C@@H]1O[C@H](COC(C)=O)[C@@H](OC(C)=O)[C@H](OC(C)=O)[C@H]1OC(C)=O)=C(/C#N)C(=O)Nc1ccc(S(=O)(=O)Nc2onc(C)c2C)cc1	3.9 µg/mL
C=CCN/C(S[C@@H]1O[C@H](COC(C)=O)[C@@H](OC(C)=O)[C@H](OC(C)=O)[C@H]1OC(C)=O)=C(/C#N)C(=O)Nc1ccc(S(=O)(=O)Nc2onc(C)c2C)cc1	3.9 µg/mL
C=CCN/C(SCC)=C(/C#N)C(=O)Nc1ccc(S(=O)(=O)Nc2onc(C)c2C)cc1	0.25 µg/mL
CN/C(S[C@@H]1O[C@H](COC(C)=O)[C@@H](OC(C)=O)[C@H](OC(C)=O)[C@H]1OC(C)=O)=C(/C#N)C(=O)Nc1ccc(S(=O)(=O)Nc2onc(C)c2C)cc1	3.9 µg/mL
CCN/C(S)=C(/C#N)C(=O)Nc1ccc(S(=O)(=O)Nc2onc(C)c2C)cc1	31.2 µg/mL
CC(=O)OC[C@H]1O[C@@H](S/C(Nc2ccccc2)=C(\C#N)C(=O)Nc2ccc(S(=O)(=O)Nc3onc(C)c3C)cc2)[C@H](OC(C)=O)[C@@H](OC(C)=O)[C@H]1OC(C)=O	125 µg/mL
